These entries and their values trace back to patent US8557872B2.

Target: vanilloid receptor (Rattus norvegicus, UniProt O35433)
Construct: DRG nerve cells from the primary culture of 2 days were equilibrated by washing 4 times; endogenous in cells; host or cells: primary culture of dorsal root ganglion neurons from neonatal SD rats
Sequence (O35433 whole entry): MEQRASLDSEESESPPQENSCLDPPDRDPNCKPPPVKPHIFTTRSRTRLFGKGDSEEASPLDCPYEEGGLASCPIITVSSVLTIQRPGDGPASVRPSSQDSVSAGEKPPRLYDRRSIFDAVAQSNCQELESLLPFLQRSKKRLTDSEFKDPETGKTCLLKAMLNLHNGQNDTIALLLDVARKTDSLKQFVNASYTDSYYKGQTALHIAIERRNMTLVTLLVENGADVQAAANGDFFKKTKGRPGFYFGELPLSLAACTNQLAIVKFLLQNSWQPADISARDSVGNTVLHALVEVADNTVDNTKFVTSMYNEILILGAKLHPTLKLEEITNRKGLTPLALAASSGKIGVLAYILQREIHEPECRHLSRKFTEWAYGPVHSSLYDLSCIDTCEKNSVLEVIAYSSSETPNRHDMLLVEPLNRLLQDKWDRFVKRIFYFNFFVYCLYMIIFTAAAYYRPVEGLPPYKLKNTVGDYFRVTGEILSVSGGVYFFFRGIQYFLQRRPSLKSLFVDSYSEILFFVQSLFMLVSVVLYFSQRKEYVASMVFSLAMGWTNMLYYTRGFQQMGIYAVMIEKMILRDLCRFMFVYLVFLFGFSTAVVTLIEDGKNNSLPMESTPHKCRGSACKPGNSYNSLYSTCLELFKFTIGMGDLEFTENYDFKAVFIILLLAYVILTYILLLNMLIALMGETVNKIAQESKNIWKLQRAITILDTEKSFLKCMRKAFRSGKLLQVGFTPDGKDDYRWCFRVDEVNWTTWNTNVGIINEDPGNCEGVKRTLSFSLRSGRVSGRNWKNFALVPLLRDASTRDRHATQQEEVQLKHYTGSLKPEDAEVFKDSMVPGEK
Assay: 45Ca influx test (calcium uptake) in primary cultured DRG neurons, capsaicin 0.5 μM
Type: cell-based
Settings: rat DRG neurons, capsaicin 0.5 μM, 45Ca; read-out: Antagonist Calcium Uptake Test (IC50)
pIC50: −log10 of the molar value.
parameter.measured: pIC50

{"columns": ["molecule", "data.value"],
 "data": [
  ["C#Cc1cc(CNC(=O)/C=C/c2ccc(C(F)(F)F)cc2OCCC)cc(F)c1NS(C)(=O)=O [Example 14]", 6.62],
  ["CCCOc1cc(F)ccc1/C=C/C(=O)NCc1cc(F)c(NS(C)(=O)=O)c(F)c1 [Example 28]", 5.96],
  ["CCCNc1cc(C(F)(F)F)ccc1/C=C/C(=O)N[C@H](C)c1cc(F)c(NS(C)(=O)=O)c(F)c1 [Example 1]", 7.72],
  ["CCc1cc(C(F)(F)F)cc(CC)c1/C=C/C(=O)N[C@H](C)c1cc(F)c(NS(C)(=O)=O)c(F)c1 [Example 17]", 6.85],
  ["CCCc1cc(C(F)(F)F)ccc1/C=C/C(=O)NCc1cc(F)c(NS(C)(=O)=O)c(F)c1 [Example 22]", 6.80],
  ["CCOc1cc(C(F)(F)F)ccc1/C=C/C(=O)N[C@H](C)c1ccc(NS(C)(=O)=O)c(F)c1 [Example 9]", 6.47],
  ["CC(C)Oc1cc(C(F)(F)F)ccc1/C=C/C(=O)NCc1cc(F)c(NS(C)(=O)=O)c(F)c1 [Example 20]", 6.82],
  ["CCNc1cc(C(F)(F)F)ccc1/C=C/C(=O)NCc1cc(C)c(NS(C)(=O)=O)c(F)c1 [Example 19]", 6.80],
  ["CCNc1cc(F)ccc1/C=C/C(=O)NCc1cc(F)c(NS(C)(=O)=O)c(F)c1 [Example 43]", 6.49],
  ["CCCCNc1cc(F)ccc1/C=C/C(=O)N[C@H](C)c1cc(F)c(NS(C)(=O)=O)c(F)c1 [Example 45]", 7.19]
]}

(a) CCCc1cc(C(F)(F)F)cc(CCC)c1/C=C/C(=O)N[C@H](C)c1cc(F)c(NS(C)(=O)=O)c(F)c1 [Example 6]
(b) CCCCc1cc(C(F)(F)F)cc(CCCC)c1/C=C/C(=O)N[C@H](C)c1cc(F)c(NS(C)(=O)=O)c(F)c1 [Example 16]
(c) CCC(C)Oc1cc(F)ccc1/C=C/C(=O)N[C@H](C)c1cc(F)c(NS(C)(=O)=O)c(F)c1 (stereo partly drawn) [Example 40]
(d) CCNc1cc(C(F)(F)F)ccc1/C=C/C(=O)N[C@H](C)c1cc(F)c(NS(C)(=O)=O)c(F)c1 [Example 10]
(e) CCCCOc1cc(C(F)(F)F)ccc1/C=C/C(=O)NCc1cc(F)c(NS(C)(=O)=O)c(F)c1 [Example 32]
Ask: Please order the records by their reported pIC50, lowest number first. Response format: the labels, sorted as the prompt asks.
Reply: e, b, c, d, a

====

Assay: PK study in rats, single oral administration
Assay type: in vivo, rat
Settings: rat, single oral administration, plasma, Table 2
parameter.measured: Cmax (ng/mL)

(A) CCCCc1cc(C(F)(F)F)ccc1/C=C/C(=O)N[C@H](C)c1cc(F)c(NS(C)(=O)=O)c(F)c1 [Example 24]
(B) C=Cc1cc(CNC(=O)/C=C/c2ccc(C(F)(F)F)cc2NC(C)C)cc(F)c1NS(C)(=O)=O [Example 54]
(C) CCCc1cc(C(F)(F)F)ccc1/C=C/C(=O)NCc1cc(F)c(NS(C)(=O)=O)c(F)c1 [Example 22]
Ask: Sort by Cmax with smallest numbers at the start of the list. I would appreciate it if you listed the labels in the requested order.
Reply: B, A, C

====

Assay: PK study in rats, single oral administration
Format: in vivo, rat
Details: rat, single oral administration, plasma, Table 3, read-out: T½ (converted)
parameter.measured: half-life (min)
Write down the numeric answer in min and omit the unit.

Ask: Item CC(C)(C)c1ccc(/C=C/C(=O)NCc2cc(F)c(NS(C)(=O)=O)c(F)c2)cc1 [Comp Cpd B, reference compound] has what recorded half-life?
Reply: 27.7

====

Experiment: PK study in rats, single oral administration
Assay type: in vivo, rat
Conditions: rat, single oral administration, plasma, Table 4
parameter.measured: Tmax (h)
// return numeric value only (unit: h, not printed)

Ask: Could you share which Tmax value was measured for C=Cc1cc(CNC(=O)/C=C/c2ccc(C(F)(F)F)cc2)ccc1NS(C)(=O)=O [Comp Cpd F, reference compound] ?
Reply: 2

====

Biological target: vanilloid receptor (Rattus norvegicus, UniProt O35433)
Construct: DRG nerve cells from the primary culture of 2 days were equilibrated by washing 4 times; endogenous in cells; host or cells: primary culture of dorsal root ganglion neurons from neonatal SD rats
Test: 45Ca influx test (calcium uptake) in primary cultured DRG neurons, capsaicin 0.5 μM
Type: cell-based
Conditions: comparison with comparative compounds F and G; read-out: IC50 value
parameter.measured: IC50 (nM)

(A) C=Cc1cc(CNC(=O)/C=C/c2ccc(C(F)(F)F)cc2)ccc1NS(C)(=O)=O [Comp Cpd F, reference compound]
(B) C=Cc1cc(CNC(=O)/C=C/c2ccc(C(F)(F)F)cc2NC(C)C)cc(F)c1NS(C)(=O)=O
(C) C=Cc1cc(CNC(=O)/C=C/c2ccc(C(F)(F)F)cc2NCCC)cc(F)c1NS(C)(=O)=O
Ask: # sort list by recorded IC50, greatest to least Response field: labels, in requested order.
Reply: A, C, B
(A: 570 nM, C: 150 nM, B: 27 nM)

====

Test: PK study in rats, single oral administration
Type: in vivo, rat
Details: rat, single oral administration, plasma, Table 2
parameter.measured: Tmax (h)

{"columns": ["sample.smiles", "data.value"],
 "data": [
  ["CCCNc1cc(C(F)(F)F)ccc1/C=C/C(=O)NCc1cc(F)c(NS(C)(=O)=O)c(F)c1", 2],
  ["CCCc1cc(C(F)(F)F)ccc1/C=C/C(=O)N[C@H](C)c1cc(F)c(NS(C)(=O)=O)c(F)c1", 2],
  ["CCCc1cc(C(F)(F)F)ccc1/C=C/C(=O)NCc1cc(F)c(NS(C)(=O)=O)c(F)c1", 2]
]}

====

Biological target: vanilloid receptor (Rattus norvegicus, UniProt O35433)
Construct: DRG nerve cells from the primary culture of 2 days were equilibrated by washing 4 times; endogenous in cells; host or cells: primary culture of dorsal root ganglion neurons from neonatal SD rats
Assay: 45Ca influx test (calcium uptake) in primary cultured DRG neurons, capsaicin 0.5 μM
Type: cell-based
Details: Table 3, comparative compounds having tert-butyl-phenyl; read-out: IC50
parameter.measured: IC50 (nM)

(a) CCCNc1cc(C(C)(C)C)ccc1/C=C/C(=O)NCc1cc(F)c(NS(C)(=O)=O)c(F)c1 [Comp Cpd D, reference compound]
(b) CCCc1cc(C(C)(C)C)ccc1/C=C/C(=O)N[C@H](C)c1cc(F)c(NS(C)(=O)=O)c(F)c1 [Comp Cpd E, reference compound]
Ask: Could you tell me which of a and b has the lower IC50 reading? Write down the label attached to your selection.
Reply: a

====

Target: vanilloid receptor (Rattus norvegicus, UniProt O35433)
Construct: DRG nerve cells from the primary culture of 2 days were equilibrated by washing 4 times; endogenous in cells; host or cells: primary culture of dorsal root ganglion neurons from neonatal SD rats
Test: 45Ca influx test (calcium uptake) in primary cultured DRG neurons, capsaicin 0.5 μM
Format: cell-based
Details: rat DRG neurons, capsaicin 0.5 μM, 45Ca; read-out: Antagonist Calcium Uptake Test (IC50)
pIC50: −log10 of the molar value.
parameter.measured: pIC50

Guide cases for pIC50, answers given:
{"columns": ["compound", "pIC50"],
 "data": [
  ["CCOc1cc(C(F)(F)F)ccc1/C=C/C(=O)N[C@H](C)c1cc(F)c(NS(C)(=O)=O)c(F)c1", 6.96],
  ["CCCCc1cc(C(F)(F)F)ccc1/C=C/C(=O)N[C@H](C)c1cc(F)c(NS(C)(=O)=O)c(F)c1", 7.36],
  ["CCCc1cc(C(F)(F)F)ccc1/C=C(\\C)C(=O)N[C@H](C)c1ccc(NS(C)(=O)=O)c(F)c1", 5.85]
]}

(a) CCCc1cc(C(F)(F)F)ccc1/C=C/C(=O)N[C@H](C)c1cc(F)c(NS(C)(=O)=O)c(F)c1
(b) CCCCOc1cc(F)ccc1/C=C/C(=O)N[C@H](C)c1cc(F)c(NS(C)(=O)=O)c(F)c1
(c) CCCNc1cc(F)ccc1/C=C/C(=O)NCc1cc(F)c(NS(C)(=O)=O)c(F)c1
Ask: Rank the items in ascending order with respect to pIC50. Answer with the labels in sequence, matching the requested order.
Reply: c, b, a
(c: 6.39, b: 6.82, a: 7.72)

(P) CCOc1cc(C(F)(F)F)ccc1/C=C/C(=O)NCc1cc(F)c(NS(C)(=O)=O)c(F)c1
(Q) CCCc1cc(C(F)(F)F)ccc1/C=C/C(=O)N[C@H](C)c1ccc(NS(C)(=O)=O)c(F)c1
Ask: pIC50 comparison. Which is larger, P or Q ? Pick one and reply with its label.
Reply: Q
